# System: PC-3 prostate
# assay-protocol: NCI-60 one-dose screen, 48 h (100 = growth as untreated, 0 = no growth, -100 = all killed)
# condition-context: 10 µM unless noted
This is part of a sample that, as a whole, favours compounds with a hit. Of some 83,000 tested, about 20% had one in any assay.
Class key for growth values: low: < 30%; medium: ≥ 30% and < 80%; high: ≥ 80%

Band assignment needed for NCCSC(c1ccccc1)(c1ccccc1)c1ccccc1 please.
low

Now the same for COc1cc2c(cc1OCCCCn1c(-c3cc(=O)c4ccccc4o3)nc3ccccc31)N=C[C@@H]1CCCN1C2=O
high

Now the same for Cc1cc(C)c2c(=O)[nH]c(SCC(=O)Nc3cccc(S(=O)(=O)N(C)C)c3)nc2n1
high

====

Let's look at some compounds and their measured growth.
# Tested on: HOP-62 NSCLC
# assay-protocol: NCI-60 one-dose screen, 48 h (100 = growth as untreated, 0 = no growth, -100 = all killed)
# condition-context: 10 µM unless noted
# Procedure: Growth inhibition of the HOP-62 human Non-Small Cell Lung tumor cell line is measured as a screen for anti-cancer activity. Cells are grown in 96 well plates and exposed to the test compound for 48 hours. Compounds are tested at a single concentration, which is 10^-5 M for most compounds. The reported endpoint is percent growth (GI% or GIPRCNT), where numbers from 0 - 100% represent growth inhibition, and numbers from -100% - 0 represent cell death. […]
This is part of a sample that, as a whole, favours compounds with a hit. Of some 83,000 tested, about 20% had one in any assay. The source made the active and inactive calls. Rule for the calls: active = growth percent below 10; inactive = the rest.

Solved cases below.
Request the reported growth associated with COc1ccc(-c2nnc(COc3ccc(NS(=O)(=O)c4ccc(OC)cc4)cc3F)o2)cc1
93.9% (inactive)

Now the same for O=C(Cc1n[nH]c(=O)c2ccccc12)OCc1c(Cl)cccc1Cl
69.1% (inactive)

Now the same for COc1cc(CNC(=O)CCSc2nc3ccccc3c(=O)n2Cc2cc(OC)c(OC)c(OC)c2)cc(OC)c1OC
29.3% (inactive)

Now the same for Nc1c(C(=O)Nc2cccc(C(F)(F)F)c2)sc2nc3c(cc12)CCCCCC3
-1.22% (active)

Now the same for Cc1cnc(NC(=O)C(Cc2ccccc2)NC(=O)c2ccccc2)s1 (stereo not given)
84.1% (inactive)

Further cases:
Request the reported growth associated with Cc1sc(N=Nc2ccc(N(C)C)cc2)[n+]([O-])c1C
106% (inactive)

Now the same for CCn1cc(C(=O)O)c(=O)c2cc(F)c(N3CCN(S(=O)(=O)c4ccc(OC)c(OC)c4)CC3)cc21
100% (inactive)

Now the same for N#CC1=C(N)n2nc(-c3ccncc3)nc2NC1c1cccc2ccccc12 (stereo not given)
88.2% (inactive)

Now the same for CCN1C(=O)/C(=c2\sc3n(c2=O)C2C(NN=3)N(CC)C(=S)N2CC)c2ccccc21 (stereo not given)
79.2% (inactive)

Now the same for NC(=S)NN=C1CCCCC1
91.9% (inactive)

====

Let's look at some compounds and their measured growth.
# Tested on: LOX IMVI melanoma
# assay-protocol: NCI-60 one-dose screen, 48 h (100 = growth as untreated, 0 = no growth, -100 = all killed)
# condition-context: 10 µM unless noted
The panel holds about 83,000 compounds, 20% with a hit somewhere; the sample as a whole holds those more often.
Numeric only. Scale: %

Request the reported growth associated with COc1cc(NS(C)(=O)=O)ccc1Nc1c2ccc([N+](=O)[O-])cc2nc2c(C)cccc12
-3.95

Now the same for O=C(Nc1cccc(C(F)(F)F)c1)Nc1ccc(OCc2nnc(-c3ccccc3)o2)c(F)c1
46.8

Now the same for CN(C)c1ncc(-c2ccc(C(F)(F)F)cc2)c(NC2CCCCCC2)n1
66.2

Now the same for COc1ccc(/C=C/c2nc(N3CCOCC3)c3nc(Cl)c(Cl)cc3n2)cc1OC
97.2

Now the same for COc1cc(OC)cc(-c2n[nH]nc2-c2ccc3c(c2)OCO3)c1
34.4

Further cases:
Request the reported growth associated with CC(=O)N1Cc2ccccc2C(C)Cc2cc(Cl)ccc21 (stereo not given)
105

Now the same for COc1ccc(C(=O)/C=C/c2cc(C(=O)c3cc(OC)c(OC)c(OC)c3)ccc2OC)cc1
27.4

Now the same for O=C(Nc1cc(C(F)(F)F)cc(C(F)(F)F)c1)Nc1ccc(OCc2nnc(-c3ccc(Cl)cc3)o2)c(F)c1
3.82

Now the same for O=C1C2=C(C(=O)c3c(O)ccc(O)c31)N(c1cccnc1)Cc1ccccc1O2
-64.6

Now the same for COc1cccc(/C=C/c2c(C(=O)O)cccc2[N+](=O)[O-])c1OC
99.2

Source of measurements: PubChem BioAssay (NCI)
